# Target System: Aβ₄₀ (L1 lipidic Aβ₄₀ fibril, amyloid beta 1-40) (Homo sapiens)
# Construct: Aβ(1-40), type 1 lipidic (L1) fibril of two protofilaments
# Sequence (P05067 672-711): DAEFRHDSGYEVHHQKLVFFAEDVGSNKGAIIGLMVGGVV
# Measurement Notes: ITC on preformed L1 fibrils; supported by DNP-enhanced NHHC ssNMR contacts, (H)CANH titration and cryo-EM density
Attribute Measured: Kd (nM)
Answer with a number only, understood to be in nM.

What Kd value was documented for this molecule, Brc1cccc(-c2cc(-c3ccc4c(c3)OCO4)n[nH]2)c1 [anle138b] ? 640
